Data provenance is the supplement of paper PMC3334620.

In this section, each of the sequences is paired with its reported PBM E-score.
Molecular target: Abf1 (UniProt P14164)
Sequence: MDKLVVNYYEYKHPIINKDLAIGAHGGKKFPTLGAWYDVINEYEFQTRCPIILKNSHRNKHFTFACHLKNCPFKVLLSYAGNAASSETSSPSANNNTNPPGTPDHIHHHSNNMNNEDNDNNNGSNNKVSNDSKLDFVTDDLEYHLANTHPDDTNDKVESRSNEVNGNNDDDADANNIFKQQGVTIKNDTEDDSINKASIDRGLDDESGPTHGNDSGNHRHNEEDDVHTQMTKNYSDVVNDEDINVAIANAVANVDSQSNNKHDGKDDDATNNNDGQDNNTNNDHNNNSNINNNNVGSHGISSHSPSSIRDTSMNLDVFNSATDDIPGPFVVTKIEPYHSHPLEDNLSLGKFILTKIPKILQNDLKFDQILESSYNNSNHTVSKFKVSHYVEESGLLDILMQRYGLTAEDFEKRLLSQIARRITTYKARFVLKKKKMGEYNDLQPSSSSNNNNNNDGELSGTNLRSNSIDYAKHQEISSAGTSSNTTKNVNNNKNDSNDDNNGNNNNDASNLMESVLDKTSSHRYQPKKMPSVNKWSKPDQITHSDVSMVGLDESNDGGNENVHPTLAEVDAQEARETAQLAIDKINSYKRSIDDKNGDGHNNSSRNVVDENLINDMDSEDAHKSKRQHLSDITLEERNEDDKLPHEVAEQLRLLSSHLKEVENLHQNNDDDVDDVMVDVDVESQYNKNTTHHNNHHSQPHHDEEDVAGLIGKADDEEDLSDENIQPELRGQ
Experiment: PBM E-score (8-mer binding enrichment) (E-score (-0.5 to 0.5)); higher = stronger / more preferred TF binding
Conditions: protein concentration: 200 nM; construct: GST-full length
The full ranking holds about 33,000 sequences; the median of “E-score (-0.5 to 0.5)” is about -0.015, and the highest 2% start at about 0.3. The list comes from a sample in which the highest values are over-represented; it also holds close analogues and randomly drawn sequences.
measurementName: PBM E-score

| orderedResidues | reading |
| --- | --- |
| ATGACATC | 0.308 |
| CACGACAC | 0.296 |
| TACGACAA | 0.298 |
| GACGACGC | 0.3 |

* * *

Biological target: Abf1 (UniProt P14164)
Sequence: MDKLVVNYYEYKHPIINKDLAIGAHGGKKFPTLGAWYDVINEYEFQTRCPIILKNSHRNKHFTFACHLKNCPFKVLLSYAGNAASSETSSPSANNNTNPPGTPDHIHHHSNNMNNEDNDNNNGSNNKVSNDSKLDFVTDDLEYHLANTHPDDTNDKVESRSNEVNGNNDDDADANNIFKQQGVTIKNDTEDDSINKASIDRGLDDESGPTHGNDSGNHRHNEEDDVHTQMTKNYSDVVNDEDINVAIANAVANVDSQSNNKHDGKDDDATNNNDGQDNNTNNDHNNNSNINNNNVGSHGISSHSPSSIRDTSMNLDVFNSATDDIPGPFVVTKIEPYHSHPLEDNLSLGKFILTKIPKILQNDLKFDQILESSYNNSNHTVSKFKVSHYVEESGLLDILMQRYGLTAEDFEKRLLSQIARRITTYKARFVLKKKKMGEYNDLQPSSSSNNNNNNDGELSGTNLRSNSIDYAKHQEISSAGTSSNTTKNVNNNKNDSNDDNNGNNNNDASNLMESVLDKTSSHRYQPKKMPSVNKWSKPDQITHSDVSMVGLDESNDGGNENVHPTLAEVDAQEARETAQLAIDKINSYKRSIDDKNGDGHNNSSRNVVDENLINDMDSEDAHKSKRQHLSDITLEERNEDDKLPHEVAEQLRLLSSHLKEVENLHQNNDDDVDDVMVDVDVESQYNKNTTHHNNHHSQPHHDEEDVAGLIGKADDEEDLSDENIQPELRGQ
Experiment: PBM E-score (8-mer binding enrichment) (E-score (-0.5 to 0.5)); higher = stronger / more preferred TF binding
Details: protein concentration: 200 nM; construct: GST-full length
Whole data set: some 33,000 sequences, median “E-score (-0.5 to 0.5)” near -0.015, cut for the highest 2% near 0.3. Only a selection was taken, and the highest values are over-represented in it overall.
Label rule, in plain words: PBM E-score of 0.06 and up is 1.0, under 0.06 is 0.0.

| orderedResidues | targetOfAssay | category |
| --- | --- | --- |
| ATATCGTA | Abf1 (UniProt P14164) | 1.0 |
| ATACGACA | Abf1 (UniProt P14164) | 1.0 |
| ATACGGAG | Abf1 (UniProt P14164) | 1.0 |
| GAATCGTC | Abf1 (UniProt P14164) | 1.0 |
| GGAATACA | Abf1 (UniProt P14164) | 0.0 |
| TACACCCA | Abf1 (UniProt P14164) | 0.0 |
| GATGTCCC | Abf1 (UniProt P14164) | 1.0 |
| ATTTAAAT | Abf1 (UniProt P14164) | 1.0 |
| ACACGACT | Abf1 (UniProt P14164) | 1.0 |
| AGAATCCG | Abf1 (UniProt P14164) | 0.0 |
| TTACGGAA | Abf1 (UniProt P14164) | 1.0 |
| ATATCGGG | Abf1 (UniProt P14164) | 0.0 |
| ACACGACC | Abf1 (UniProt P14164) | 0.0 |
| GTAGCCCA | Abf1 (UniProt P14164) | 0.0 |
| CTGCCATA | Abf1 (UniProt P14164) | 0.0 |
| GACGCCGA | Abf1 (UniProt P14164) | 0.0 |

* * *

Biological target: Abf1 (UniProt P14164)
Sequence: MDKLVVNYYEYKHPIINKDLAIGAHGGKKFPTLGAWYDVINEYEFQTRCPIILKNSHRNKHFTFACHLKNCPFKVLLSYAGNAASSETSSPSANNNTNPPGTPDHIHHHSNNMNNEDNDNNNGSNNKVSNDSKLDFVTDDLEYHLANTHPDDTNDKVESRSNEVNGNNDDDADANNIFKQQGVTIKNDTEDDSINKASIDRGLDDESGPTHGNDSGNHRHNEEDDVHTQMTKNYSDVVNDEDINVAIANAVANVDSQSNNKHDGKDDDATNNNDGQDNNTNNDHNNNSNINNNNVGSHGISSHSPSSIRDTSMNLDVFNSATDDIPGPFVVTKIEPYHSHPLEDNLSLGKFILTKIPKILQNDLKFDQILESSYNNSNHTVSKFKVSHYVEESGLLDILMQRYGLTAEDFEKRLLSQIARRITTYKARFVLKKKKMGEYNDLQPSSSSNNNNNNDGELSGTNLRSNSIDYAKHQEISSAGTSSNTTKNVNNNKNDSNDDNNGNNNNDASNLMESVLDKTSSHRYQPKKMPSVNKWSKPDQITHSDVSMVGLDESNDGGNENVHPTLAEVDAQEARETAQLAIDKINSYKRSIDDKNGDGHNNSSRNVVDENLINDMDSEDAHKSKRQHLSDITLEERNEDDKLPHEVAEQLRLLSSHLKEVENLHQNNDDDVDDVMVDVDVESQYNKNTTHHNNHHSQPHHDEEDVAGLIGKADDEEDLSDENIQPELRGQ
Assay: PBM E-score (8-mer binding enrichment) (E-score (-0.5 to 0.5)); higher = stronger / more preferred TF binding
Details: protein concentration: 200 nM; construct: GST-full length
In all, about 33,000 sequences were measured (“E-score (-0.5 to 0.5)”: median about -0.015, highest 2% from about 0.3 on). Only a selection was taken, and the highest values are over-represented in it overall.
Record 1 (yes) whenever PBM E-score is at 0.09 or higher; record 0 (no) when lower.

| orderedResidues | category |
| --- | --- |
| GACCTGGC | 0 (no) |
| AATGATCC | 0 (no) |
| GATATACC | 1 (yes) |
| CATCACAA | 0 (no) |
| TCTTCTCA | 0 (no) |
| GAGACGAA | 0 (no) |
| ATTAAGTA | 1 (yes) |
| ATATCACA | 1 (yes) |
| ACGACCGC | 0 (no) |
| CTAGATCA | 1 (yes) |
| CATGATCG | 0 (no) |
| GCCGAAAC | 0 (no) |
| CATGTACG | 1 (yes) |
| CATCACTC | 1 (yes) |
| ACGACAAG | 1 (yes) |
| CCGGGCCG | 0 (no) |
| CACGAAAA | 1 (yes) |
| ACTGGTAC | 0 (no) |
| CATATACC | 0 (no) |
| GGTATATA | 1 (yes) |
| CCCGCTAG | 0 (no) |
| GAAACCAC | 0 (no) |
| GATATAAA | 1 (yes) |
| ATGATCTC | 1 (yes) |
| AATCTCTC | 0 (no) |
| CAACTCGC | 0 (no) |
| GATATATA | 1 (yes) |
| GAGATCTA | 0 (no) |
| ATTATGCA | 0 (no) |
| CACGAAAC | 1 (yes) |
| CTTATGTC | 0 (no) |
| ATTATGTC | 1 (yes) |
| CATGTACA | 0 (no) |
| ACAACCGG | 0 (no) |
| ACGGAGGG | 0 (no) |
| ATGTTCTG | 1 (yes) |
| TCAATAGA | 0 (no) |
| AATGTACG | 1 (yes) |
| CTATCACC | 1 (yes) |
| ACGACAGG | 0 (no) |
| ATCATGTA | 1 (yes) |
| CAGACGAC | 1 (yes) |
| ACCGGACC | 0 (no) |
| GACGAAAA | 1 (yes) |
| ATTATGCC | 0 (no) |
| CATATAAC | 1 (yes) |
| CCGACAAA | 0 (no) |
| AGTATATC | 0 (no) |
| ATTATGCG | 1 (yes) |
| AGTATATG | 0 (no) |
| CTCATGTC | 1 (yes) |
| ATAGATCA | 1 (yes) |
| CTTGATCA | 1 (yes) |
| CTATCAAA | 1 (yes) |
| AGCTACAA | 0 (no) |
| GCGACAGA | 0 (no) |
| AGCCGTTC | 0 (no) |
| ACTCGAGA | 0 (no) |
| GTTCACTA | 1 (yes) |
| AGATCATG | 1 (yes) |
| CTCCTCCC | 0 (no) |
| GATATAAC | 1 (yes) |
| AATATATC | 1 (yes) |
| CACCGTAC | 1 (yes) |
| TATATTAA | 1 (yes) |
| ACCCCTAC | 0 (no) |
| CGGGCACC | 0 (no) |
| CACCGTAG | 0 (no) |
| CTGACGAC | 1 (yes) |
| AATCACTA | 1 (yes) |
| CAGACGAA | 1 (yes) |
| CGATACAG | 0 (no) |
